The reported numbers originate from patent US20230192617A1.

# Protocol summary: Measurement of Log P values by HPLC on reversed phase columns (EEC directive 79/831 Annex V.A8)
# Type: physicochemical
# Details: reversed phase HPLC column, method [a]: LC-UV, acidic range, 0.1% formic acid in water and acetonitrile as eluent
chromatographic logP: recorded values
Lab note: record the figure alone, no unit after it.

What measured chromatographic logP goes with O=C(N[C@H]1CCSc2ccc(F)cc21)c1c(Oc2cccc(C(F)(F)F)c2)nnc2ccccc12 (racemic) [I-095] ?
4.02

What measured chromatographic logP goes with O=C(NCC(F)c1ccc(Cl)cc1Cl)c1c(Oc2cccc(Cl)c2F)nnc2c1CCCC2 (stereo not shown) [I-149] ?
3.94

What measured chromatographic logP goes with Cc1ccc(C(F)(F)CNC(=S)c2c(Oc3cccc(Cl)c3)nnc3ccccc23)c(C)c1 [I-158] ?
5.01

Please find the next compound below.
What measured chromatographic logP goes with Cc1ccc(C(F)(F)CNC(=O)c2c(Oc3cccc(Cl)c3)nnc3ccccc23)c(C)c1 [I-024] ?
4.2

----------
# Protocol summary: Measurement of Log P values by HPLC on reversed phase columns (EEC directive 79/831 Annex V.A8)
# Format: physicochemical
# Details: reversed phase HPLC column, method [a]: LC-UV, acidic range, 0.1% formic acid in water and acetonitrile as eluent
Assay endpoint: chromatographic logP
Lab note: record the figure alone, no unit after it.

Worked cases, answers included:
What measured chromatographic logP goes with Cc1cc(C(F)F)ccc1[C@@H](F)CNC(=O)c1c(Oc2cccc(C(F)(F)F)c2)cnc2ccccc12 (racemic) ?
4.08

What measured chromatographic logP goes with "Cc1ccc(C(F)(F)CNC(=O)c2c(Oc3cccc(C(F)F)c3)cnc3ccccc23)c(C)c1" ?
4.08

What measured chromatographic logP goes with "Cc1ccc(C(F)(F)CNC(=O)c2c(Oc3cccc(Cl)c3F)nnc3c2CCCC3)c(Cl)c1" ?
3.94

Further cases:
What measured chromatographic logP goes with COc1cc([C@@H](F)CNC(=O)c2c(Oc3cccc(C(F)(F)F)c3)nnc3ccccc23)ccc1Cl (racemic) ?
3.92
